# method: Enzymatic hydrolysis by dog blood (procedure C)
# Format: in vitro ADME
# condition description: 37° C., 1 hr, read-out: % Drug remaining, 1 HR, dog blood
property label: remaining at 1 h (%)

compound="COC(=O)c1ccccc1OCC(O)CNCCNC(=O)C(C)C (stereo not drawn) [II]" unit_annotation=% number=41
compound="COC(=O)c1ccccc1OCC(O)CNCCNC(=O)Cc1ccccc1 (stereo not drawn) [III]" unit_annotation=% number=53
compound="COC(=O)c1ccccc1OCC(O)CNCCNC(C)=O (stereo not drawn) [Example I]" unit_annotation=% number=54

====

# measurement target: β1 receptors, guinea pig right atria (Cavia porcellus, UniProt H0W3H1)
# Sequence (H0W3H1 1-470): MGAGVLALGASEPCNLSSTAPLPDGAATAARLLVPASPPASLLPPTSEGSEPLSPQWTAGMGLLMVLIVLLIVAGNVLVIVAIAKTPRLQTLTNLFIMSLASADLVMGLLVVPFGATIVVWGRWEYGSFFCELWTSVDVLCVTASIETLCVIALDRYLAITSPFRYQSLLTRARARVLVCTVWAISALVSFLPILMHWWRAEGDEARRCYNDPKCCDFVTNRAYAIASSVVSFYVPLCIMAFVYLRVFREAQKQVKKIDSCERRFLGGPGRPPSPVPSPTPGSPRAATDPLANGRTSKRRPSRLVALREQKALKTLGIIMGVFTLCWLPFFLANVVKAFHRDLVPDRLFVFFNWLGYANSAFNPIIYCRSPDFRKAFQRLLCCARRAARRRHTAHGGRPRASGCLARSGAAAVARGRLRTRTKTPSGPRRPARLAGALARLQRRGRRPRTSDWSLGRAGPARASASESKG
# method: cell-based
# condition description: Table VI; read-out: pA2 Atria (converted)
# Protocol: Each tissue was suspended between a fixed glass rod and a Statham Universal Transducer connected to a Beckman recorder. Atria were allowed to beat spontaneously under a loading tension of approximately 0.5 gm. Intrinsic depressant or stimulant activity was determined for each compound by progressively increasing concentrations in the tissue baths at 60-minute intervals. Tissues were not washed between increments. […]
property label: Kb (µM)

Illustrative cases are given below, each with its answer.
compound="CCOC(=O)CCc1nsnc1OCC(O)CNCCNS(=O)(=O)N1CCOCC1 (stereo not shown)" property_label=Kb number=0.794
compound="CCOC(=O)CCc1nsnc1OCC(O)CNC(C)CNC(C)=O (stereo not shown)" property_label=Kb number=0.1
compound="CCOC(=O)CCc1nsnc1OCC(O)CNCCNC(=O)Cc1ccccc1 (stereo not shown)" property_label=Kb number=0.0794
compound="CCOC(=O)CCc1nsnc1OCC(O)CNC(C)(C)CNC(=O)OCC (stereo not shown)" property_label=Kb number=0.0631

(A) CCOC(=O)CCc1nsnc1OCC(O)CNCCNC(C)=O (stereo not shown)
(B) CCOC(=O)CCc1nsnc1OCC(O)CNC(C)(C)CNC(N)=O (stereo not shown)
(C) CCOC(=O)CCc1nsnc1OCC(O)CNC(C)(C)CNC(C)=O (stereo not shown)
Which order do these items take when sorted by rising Kb? List them. Show the ranking through the labels, in the order asked for.
B, C, A
(B: 0.0398 µM, C: 0.0794 µM, A: 0.501 µM)
